method_description: Protein binding in rat plasma assessed as unbound fraction at 1 uM measured after 6 hrs by equilibrium dialysis method
Assay type: ADME, cell-free

{"molecule": "Cc1cc(-c2c(Cl)cccc2OC(F)(F)F)cc2c1NC(=O)C2", "fraction unbound at 6 h, 1 µM": 0.6}
{"molecule": "O=c1[nH]c2ccc(-c3c(Cl)cccc3Cl)cc2[nH]1", "fraction unbound at 6 h, 1 µM": 0.6}

###

method_description: Apparent permeability across apical to basolateral side in MDCK-MDR1 cells at 5 uM measured after 60 mins by LC-MS/MS analysis
Format: ADME, cell-based, Canis lupus familiaris
test_conditions: dog

{"molecule": "O=c1[nH]c2ccc(-c3c(Cl)cncc3Cl)cc2[nH]1", "Papp A→B at 1 h, 5 µM": "16 ×10⁻⁶ cm/s"}
{"molecule": "Cc1cccc(Cl)c1-c1ccc2[nH]c(=O)[nH]c2c1", "Papp A→B at 1 h, 5 µM": "25 ×10⁻⁶ cm/s"}
{"molecule": "Cc1cccc(C)c1-c1ccc2[nH]c(=O)[nH]c2c1", "Papp A→B at 1 h, 5 µM": "42 ×10⁻⁶ cm/s"}
{"molecule": "N#CCc1cccc(Cl)c1-c1ccc2[nH]c(=O)[nH]c2c1", "Papp A→B at 1 h, 5 µM": "6.6 ×10⁻⁶ cm/s"}
{"molecule": "O=c1[nH]c2ccc(-c3c(Cl)cccc3Cl)cc2[nH]1", "Papp A→B at 1 h, 5 µM": "26 ×10⁻⁶ cm/s"}
{"molecule": "Cc1cc(-c2c(Cl)cncc2OC(F)(F)F)cc2c1NC(=O)C2", "Papp A→B at 1 h, 5 µM": "44 ×10⁻⁶ cm/s"}
{"molecule": "O=c1[nH]c2ccc(-c3c(Cl)cccc3C3CC3)cc2[nH]1", "Papp A→B at 1 h, 5 µM": "10 ×10⁻⁶ cm/s"}
{"molecule": "COc1cccc(Cl)c1-c1ccc2[nH]c(=O)[nH]c2c1", "Papp A→B at 1 h, 5 µM": "26 ×10⁻⁶ cm/s"}
{"molecule": "O=c1[nH]c2ccc(-c3c(Cl)cccc3OC(F)(F)F)cc2[nH]1", "Papp A→B at 1 h, 5 µM": "22 ×10⁻⁶ cm/s"}
{"molecule": "N#Cc1cccc(Cl)c1-c1ccc2[nH]c(=O)[nH]c2c1", "Papp A→B at 1 h, 5 µM": "14 ×10⁻⁶ cm/s"}
{"molecule": "Cc1cc(-c2c(Cl)cncc2OC(F)F)cc2c1NC(=O)C2", "Papp A→B at 1 h, 5 µM": "34 ×10⁻⁶ cm/s"}
